# measurement_target: SARS-CoV-2 Mpro (Severe acute respiratory syndrome coronavirus 2, UniProt P0DTD1)
# measurement_description: FRET assay, inhibition of Mpro proteolytic activity
# Assay type: biochemical
# settings: IC50, FRET assay, presence of 1 mM DTT
# Description: As described previously, the inhibitory activity of dieckol against Mpro was preformed using a FRET assay. […] The RFU change was separately measured as described previously every second for 3 min by a microplate reader. […] To clarify the inhibitory mechanism of dieckol, the fixed concentrations of dieckol (0, 2, 4, 6 µM) were separately added to 50 µL sample of Mpro (0.4 µM), and the mixture was preincubated for 10 min at RT. After adding 5 µM FRET substrate, the VI was measured using a FRET assay. […]
measurement_name: IC50 (µM)

[[record]]
record_smiles = "Oc1cc(O)cc(Oc2c(O)cc(O)c3c2Oc2c(O)cc(Oc4c(O)cc(Oc5c(O)cc(O)c6c5Oc5c(O)cc(O)cc5O6)cc4O)cc2O3)c1"
measurement_name = "IC50"
result_unit = "µM"
value = 3.8


From: paper PMC8645223
